- Test System: T1, cynomolgus MCSP D3 (cynomolgus, UniProt Q6UVK1 1582-2224 (human entry), limits assumed)
- T1 construct: also called Cyno MCSP; cynomolgus homologue
- T1 chain: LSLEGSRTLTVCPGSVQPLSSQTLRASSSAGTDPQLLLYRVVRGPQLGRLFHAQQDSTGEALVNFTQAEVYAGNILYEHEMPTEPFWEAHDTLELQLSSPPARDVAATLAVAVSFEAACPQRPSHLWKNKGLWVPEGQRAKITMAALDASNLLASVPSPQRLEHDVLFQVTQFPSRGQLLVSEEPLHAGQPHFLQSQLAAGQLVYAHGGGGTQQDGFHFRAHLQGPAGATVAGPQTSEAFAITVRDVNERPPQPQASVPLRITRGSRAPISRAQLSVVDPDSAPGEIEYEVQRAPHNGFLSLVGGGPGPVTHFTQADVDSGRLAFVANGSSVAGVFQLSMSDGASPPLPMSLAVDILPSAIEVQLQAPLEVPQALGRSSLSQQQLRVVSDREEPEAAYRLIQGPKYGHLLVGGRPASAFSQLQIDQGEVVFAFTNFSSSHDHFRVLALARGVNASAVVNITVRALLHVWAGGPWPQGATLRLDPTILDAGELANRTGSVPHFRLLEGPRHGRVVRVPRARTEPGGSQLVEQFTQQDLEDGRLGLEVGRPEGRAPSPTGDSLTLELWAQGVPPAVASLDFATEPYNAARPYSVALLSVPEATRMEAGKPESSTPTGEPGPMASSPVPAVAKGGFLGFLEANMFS
- Assay Text: ratio of ProteOn IgG KD, parent M4-3/ML2 against variant
Measure: Fold increase over parent (fold)

- M4-3(A7)/ML2(G3) IgG (antibody, V domains shown, Human IgG1) VH: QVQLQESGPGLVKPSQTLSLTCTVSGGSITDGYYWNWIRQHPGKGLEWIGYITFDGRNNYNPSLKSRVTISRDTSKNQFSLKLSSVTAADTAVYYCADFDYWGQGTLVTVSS VL: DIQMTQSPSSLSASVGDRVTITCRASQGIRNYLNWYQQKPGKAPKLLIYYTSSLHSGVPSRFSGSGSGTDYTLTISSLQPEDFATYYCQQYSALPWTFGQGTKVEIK: 10
- M4-(A7)/ML2(C5) IgG (antibody, V domains shown, Human IgG1; also called M4-3(A7)/ML2(C5)) VH: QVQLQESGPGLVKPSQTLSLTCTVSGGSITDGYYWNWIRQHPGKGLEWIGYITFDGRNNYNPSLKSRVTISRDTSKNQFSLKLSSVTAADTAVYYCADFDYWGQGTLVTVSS VL: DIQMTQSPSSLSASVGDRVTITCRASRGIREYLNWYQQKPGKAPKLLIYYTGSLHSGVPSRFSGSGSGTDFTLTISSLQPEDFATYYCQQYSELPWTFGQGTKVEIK: 10
- M4-3(A7)/ML2 IgG (antibody, V domains shown, Human IgG1) VH: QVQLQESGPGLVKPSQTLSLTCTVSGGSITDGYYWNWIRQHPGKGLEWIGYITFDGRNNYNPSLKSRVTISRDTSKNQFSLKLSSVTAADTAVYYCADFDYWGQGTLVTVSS VL: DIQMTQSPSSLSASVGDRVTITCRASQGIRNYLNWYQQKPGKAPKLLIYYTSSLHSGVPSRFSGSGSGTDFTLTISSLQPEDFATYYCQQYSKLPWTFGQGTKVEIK: 2

Cited source: patent US20140242080A1
